Attribution: patent US8568815B2

procedure_details: Photostability, illumination with high intensity mercury lamp
Assay type: physicochemical
test_settings: methanol solution; dissolved in methanol (4 mmol/l), mercury lamp 200-600 nm; read-out: Half-life of decomposition during illumination
result_type: half-life at 4 mmol/l

Inquiry: Look up half-life at 4 mmol/l for this compound: COc1cc(/C=C/C(=O)CC(=O)/C=C/c2ccc(O)c(OC)c2)ccc1O
Reply text: 1.08 h
